assay: xn = mol fraction of the nth substance listed, in the solute-free solvent; conditions: 313.15 K; x2 = 0.6
We begin with a simple list: items and their reported solubility (g/100 g solution).
measured_metric: solubility (g/100 g solution)

compound="O=CC(O)C(O)C(O)CO (configuration not stated) + CCO + CCCCCC" reported_measurement=1.8
compound="O=CC(O)C(O)C(O)CO (configuration not stated) + CC(C)O + CCCCCC" reported_measurement=1.08
compound="Cc1nc(C)c(C)nc1C + CCCCO + CC#N" reported_measurement=53.9
compound="O=c1cc(-c2ccccc2)oc2cc(O)c(O)c(O)c12 + CCO + O" reported_measurement=0.919
compound="Cl.NC(C=O)C(O)C(O)C(O)CO (configuration not stated) + O + CO" reported_measurement=9.01
compound="Cc1nc(C)c(C)nc1C + CO + CC#N" reported_measurement=67.4
compound="Cl.NC(C=O)C(O)C(O)C(O)CO (configuration not stated) + O + CCO" reported_measurement=4.59
